- test.details: qHTS for Inhibitors of the Functional Ribonucleoprotein Complex (vRNP) of Lassa (LASV) Arenavirus: LASV Primary Screen - GLuc reporter signal (AID 1347082); note: nearly all actives have a fitted effect of over 60% in size
- conditions.used: LASV minigenome vRNP, Gaussia luciferase reporter; series mostly up to 57.5 µM
Inconclusive results are not listed. The source made the active and inactive calls. Calls come from the whole dose curve; tested in HEK293 reporter line.
Possible outcomes: active, inactive

- C=CC(=O)Nc1cc2c(Nc3ccc(F)c(Cl)c3)ncnc2cc1C#CC(C)(C)N1CCN(C)CC1: inactive
- COc1ccc(-c2ccc3c(N4CCOCC4)nc(N4C[C@@H](C)O[C@@H](C)C4)nc3n2)cc1CO: active
- CC(=O)NC(C)c1ccc(Oc2ccc(OC(C)C)cc2)cc1 (stereo not given): inactive
- O=C1CCCN1CC#CCN1CCCC1: inactive
- Cc1cc(O)ccc1Cl: inactive
- CCOc1ccc(Nc2nc(-c3c(C)nc4ccccn34)cs2)cc1: inactive
- CC[C@H]1C=CC=CC[C@@H](C)[C@H](O)[C@@](C)(O)C(=O)[C@@H](C)[C@H](O)[C@@H](C)C(=O)[C@@H](C)[C@H](O)[C@@H](C)C=CC(=O)O[C@@H]2[C@@H](C)[C@H](CC1)O[C@]1(CC[C@H](C)[C@H](C[C@@H](C)O)O1)[C@H]2C: active
- CCCCOCCOc1nc(-c2ccc(C(=O)O)c(F)c2)sc1C: inactive
- N[C@H]1C(O)O[C@H](CO)[C@@H](O)[C@@H]1O (stereo not given in full): inactive
- CC(C)(C)C(O)/C=C/c1ccc2c(c1)OCO2 (stereo not given): inactive
- Cc1c(CN2CCN(C(=O)C(C)C)CC2)sc2c(N3CCOCC3)nc(-c3cnc(N)nc3)nc12: active
- CCCCCCCCc1ccc(O)cc1: inactive
- CCN(CC)CCNC(=O)c1ccc(NC(C)=O)cc1: inactive
- CN(C)c1ccc(N=NS(=O)(=O)O)cc1: inactive
- CCOP(=O)(OCC)C(C)NC(=O)N(CCCl)N=O (stereo not given): inactive
- CC1(C)CCC(c2ccc(Cl)cc2)=C(CN2CCN(c3ccc(C(=O)NS(=O)(=O)c4ccc(N[C@H](CCN5CCOCC5)CSc5ccccc5)c(S(=O)(=O)C(F)(F)F)c4)cc3)CC2)C1: inactive
- Cc1ccc(Cl)c(O)c1: inactive
- Cn1c(Nc2ccc(C(F)(F)F)cc2)nc2cc(Oc3ccnc(-c4ncc(C(F)(F)F)[nH]4)c3)ccc21: active
- CCN1CCc2nc(N)oc2CC1: inactive
- COc1cc2c(Oc3ccc(-c4cnc(Nc5ccc(F)cc5)n(C)c4=O)cc3F)ccnc2cc1OCCCN1CCOCC1: active
- O=C1NS(=O)(=O)c2ccccc21: inactive
- c1ccc2[nH]ccc2c1: inactive
- OCCCBr: inactive
- CC(C)C[C@H](NC(=O)[C@@H](O)[C@H](N)Cc1ccccc1)C(=O)O: inactive
- Cc1ccccc1-n1c(Cn2cnc3c(N)ncnc32)nc2cccc(C)c2c1=O: active
- CCCN1CCO[C@@H]2c3cc(O)ccc3OC[C@@H]21: inactive
- O=[N+]([O-])c1ccc([As](=O)(O)O)cc1: inactive
- Cc1ccc(S(=O)(=O)Nc2cc(Cl)ccc2C(=O)Nc2nc(-c3ccccc3)cs2)cc1: inactive
- O=C(C=Cc1cccnc1)NCCCCC1CCN(C(=O)c2ccccc2)CC1: active
- CC(=O)Nc1ccc([C@H](C)C(=O)Nc2ncc(C(C)C)s2)cc1: active
